Measured values drawn from patent US20200231614A1 for this set.

- Test system: PSMA + PC-3 PiP and PSMA − PC-3 flu tumor xenografts
- condition_context: 1 H post-injection
observed_property: Biodistribution: stomach (% ID/g)
Numbers only, in % ID/g.

Could you tell me Biodistribution: stomach for each of these compounds? They are listed below.
1. O=C(O)CC[C@H](NC(=O)N[C@@H](CCC(=O)NCCc1ccc([131I])cc1)C(=O)O)C(=O)O [[^131I]HS-549]
2. O=C(O)CC[C@H](NC(=O)NC(CCCCNC(=O)c1ccc([211At])cc1)C(=O)O)C(=O)O (stereo partly shown) [[^211At]YC-I-27]
3. N=C(N)NCc1ccc(C(=O)NCCCC[C@H](NC(=O)N[C@@H](CCC(=O)O)C(=O)O)C(=O)O)cc1[131I] [[^131I] labeled 7 (PSMA-620)]
4. O=C(O)CC[C@H](NC(=O)N[C@@H](CCC(=O)NCCc1ccc([211At])cc1)C(=O)O)C(=O)O [[^211At]HS-549]
5. N=C(N)NCc1ccc(C(=O)NCCCCC(NC(=O)CCCCCCC(=O)NCCCC[C@H](NC(=O)N[C@@H](CCC(=O)O)C(=O)O)C(=O)O)C(=O)O)cc1[211At] (stereo partly shown) [[^211At] labeled PSMA-904]
6. O=C(O)CC[C@H](NC(=O)N[C@@H](CCCCNC(=O)c1ccc([131I])cc1)C(=O)O)C(=O)O [[^131I]YC-I-27]
7. N=C(N)NCc1ccc(C(=O)NCCCCC(NC(=O)CCCCCCC(=O)NCCCC[C@H](NC(=O)N[C@@H](CCC(=O)O)C(=O)O)C(=O)O)C(=O)O)cc1[131I] (stereo partly shown) [[^131I] labeled PSMA-904]

0.92
10.1
2.01
7.07
1.64
0.92
0.73

###

- Tested on: PSMA + PC-3 PiP and PSMA − PC-3 flu tumor xenografts
- condition_context: 1 H post-injection
Entries whose Biodistribution: blood is below 2 % ID/g take 1; entries at or above 2 % ID/g take -1.

N=C(N)NCc1ccc(C(=O)NCCCC[C@H](NC(=O)N[C@@H](CCC(=O)O)C(=O)O)C(=O)O)cc1[131I] [[^131I] labeled 7 (PSMA-620)] : 1
N=C(N)NCc1ccc(C(=O)NCCCCC(NC(=O)CCCCCCC(=O)NCCCC[C@H](NC(=O)N[C@@H](CCC(=O)O)C(=O)O)C(=O)O)C(=O)O)cc1[211At] (some centres unmarked) [[^211At] labeled PSMA-904] : 1
O=C(O)CC[C@H](NC(=O)NC(CCCCNC(=O)c1ccc([211At])cc1)C(=O)O)C(=O)O (some centres unmarked) [[^211At]YC-I-27] : 1
O=C(O)CC[C@H](NC(=O)N[C@@H](CCC(=O)NCCc1ccc([211At])cc1)C(=O)O)C(=O)O [[^211At]HS-549] : -1

Could you please tell me whether Biodistribution: blood recorded for O=C(O)CC[C@H](NC(=O)N[C@@H](CCC(=O)NCCc1ccc([131I])cc1)C(=O)O)C(=O)O [[^131I]HS-549] is less than 2 % ID/g?
-1

Could you please tell me whether Biodistribution: blood recorded for O=C(O)CC[C@H](NC(=O)N[C@@H](CSCc1ccc([125I])cc1)C(=O)O)C(=O)O [[^125I] labeled DCIBC] is less than 2 % ID/g?
-1

Could you please tell me whether Biodistribution: blood recorded for N=C(N)NCc1ccc(C(=O)NCCCCC(NC(=O)CCCCCCC(=O)NCCCC[C@H](NC(=O)N[C@@H](CCC(=O)O)C(=O)O)C(=O)O)C(=O)O)cc1[131I] (some centres unmarked) [[^131I] labeled PSMA-904] is less than 2 % ID/g?
1

Could you please tell me whether Biodistribution: blood recorded for O=C(O)CC[C@H](NC(=O)N[C@@H](CCCCNC(=O)c1ccc([131I])cc1)C(=O)O)C(=O)O [[^131I]YC-I-27] is less than 2 % ID/g?
1

###

- Test system: PSMA + PC-3 PiP and PSMA − PC-3 flu tumor xenografts
- condition_context: 2 H post-injection
observed_property: Biodistribution: stomach (% ID/g)
Numbers only, in % ID/g.

Could you tell me Biodistribution: stomach for each of these molecules? They are listed below.
1. N=C(N)NCc1ccc(C(=O)NCCCCC(NC(=O)CCCCCCC(=O)NCCCC[C@H](NC(=O)N[C@@H](CCC(=O)O)C(=O)O)C(=O)O)C(=O)O)cc1[211At] (stereo partly shown) [[^211At] labeled PSMA-904]
2. O=C(O)CC[C@H](NC(=O)N[C@@H](CCC(=O)NCCc1ccc([131I])cc1)C(=O)O)C(=O)O [[^131I]HS-549]
3. O=C(O)CC[C@H](NC(=O)NC(CCCCNC(=O)c1ccc([211At])cc1)C(=O)O)C(=O)O (stereo partly shown) [[^211At]YC-I-27]

1: 2.86; 2: 0.47; 3: 9.29

Quick one: Biodistribution: stomach for O=C(O)CC[C@H](NC(=O)N[C@@H](CCC(=O)NCCc1ccc([211At])cc1)C(=O)O)C(=O)O [[^211At]HS-549] ?
14.3

###

- Tested on: PSMA + PC-3 PiP and PSMA − PC-3 flu tumor xenografts
- condition_context: 2 H post-injection
observed_property: Biodistribution: Lrg Int. (% ID/g)
Numbers only, in % ID/g.

Consider the reported Biodistribution: Lrg Int. for these compounds:
O=C(O)CC[C@H](NC(=O)N[C@@H](CSCc1ccc([125I])cc1)C(=O)O)C(=O)O [[^125I] labeled DCIBC] : 1.2
O=C(O)CC[C@H](NC(=O)N[C@@H](CCC(=O)NCCc1ccc([211At])cc1)C(=O)O)C(=O)O [[^211At]HS-549] : 4.59
N=C(N)NCc1ccc(C(=O)NCCCCC(NC(=O)CCCCCCC(=O)NCCCC[C@H](NC(=O)N[C@@H](CCC(=O)O)C(=O)O)C(=O)O)C(=O)O)cc1[211At] (some centres unmarked) [[^211At] labeled PSMA-904] : 26.7
N=C(N)NCc1ccc(C(=O)NCCCCC(NC(=O)CCCCCCC(=O)NCCCC[C@H](NC(=O)N[C@@H](CCC(=O)O)C(=O)O)C(=O)O)C(=O)O)cc1[131I] (some centres unmarked) [[^131I] labeled PSMA-904] : 21.3

From here, focus on the item given below.
Quick one: Biodistribution: Lrg Int. for O=C(O)CC[C@H](NC(=O)N[C@@H](CCC(=O)NCCc1ccc([131I])cc1)C(=O)O)C(=O)O [[^131I]HS-549] ?
1.32

###

- Test system: PSMA + PC-3 PiP and PSMA − PC-3 flu tumor xenografts
- condition_context: PSMA+ tumor xenograft, 2 H post-injection
Can you tell me Biodistribution: PC-3 PiP for the items I'm about to list?
Give bare numbers, in % ID/g.

Consider the reported Biodistribution: PC-3 PiP for these compounds:
N=C(N)NCc1ccc(C(=O)NCCCCC(NC(=O)CCCCCCC(=O)NCCCC[C@H](NC(=O)N[C@@H](CCC(=O)O)C(=O)O)C(=O)O)C(=O)O)cc1[211At] (stereo partly shown) [[^211At] labeled PSMA-904] : 21.1
O=C(O)CC[C@H](NC(=O)N[C@@H](CCC(=O)NCCc1ccc([211At])cc1)C(=O)O)C(=O)O [[^211At]HS-549] : 42.0
O=C(O)CC[C@H](NC(=O)N[C@@H](CCCCNC(=O)c1ccc([131I])cc1)C(=O)O)C(=O)O [[^131I]YC-I-27] : 15.5
O=C(O)CC[C@H](NC(=O)NC(CCCCNC(=O)c1ccc([211At])cc1)C(=O)O)C(=O)O (stereo partly shown) [[^211At]YC-I-27] : 20.7
N=C(N)NCc1ccc(C(=O)NCCCC[C@H](NC(=O)N[C@@H](CCC(=O)O)C(=O)O)C(=O)O)cc1[131I] [[^131I] labeled 7 (PSMA-620)] : 17.2
O=C(O)CC[C@H](NC(=O)N[C@@H](CCC(=O)NCCc1ccc([131I])cc1)C(=O)O)C(=O)O [[^131I]HS-549] : 74.7

From here, focus on the item given below.
Quick one: Biodistribution: PC-3 PiP for N=C(N)NCc1ccc(C(=O)NCCCCC(NC(=O)CCCCCCC(=O)NCCCC[C@H](NC(=O)N[C@@H](CCC(=O)O)C(=O)O)C(=O)O)C(=O)O)cc1[131I] (stereo partly shown) [[^131I] labeled PSMA-904] ?
24.7

###

- System: PSMA + PC-3 PiP and PSMA − PC-3 flu tumor xenografts
- condition_context: 21 H post-injection
observed_property: Biodistribution: Sm int.
// unit must come after the numeric part

Consider the reported Biodistribution: Sm int. for these compounds:
N=C(N)NCc1ccc(C(=O)NCCCCC(NC(=O)CCCCCCC(=O)NCCCC[C@H](NC(=O)N[C@@H](CCC(=O)O)C(=O)O)C(=O)O)C(=O)O)cc1[211At] (stereo partly drawn) [[^211At] labeled PSMA-904] : 1.51 ± 0.91 % ID/g
N=C(N)NCc1ccc(C(=O)NCCCC[C@H](NC(=O)N[C@@H](CCC(=O)O)C(=O)O)C(=O)O)cc1[131I] [[^131I] labeled 7 (PSMA-620)] : 0.31 ± 0.07 % ID/g

Quick one: Biodistribution: Sm int. for O=C(O)CC[C@H](NC(=O)N[C@@H](CCC(=O)NCCc1ccc([211At])cc1)C(=O)O)C(=O)O [[^211At]HS-549] ?
1.28 ± 0.30 % ID/g
